Please provide measured GFP response vs DMSO for the entries that follow.
Experimental protocol: modulators of MEP2-GFP levels in yeast, primary screen, S. cerevisiae, multiplex flow cytometry (AID 1867);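 also: median GFP channel fluorescence of barcode-gated MEP2-GFP cells measured by flow cytometry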
Test conditions: S. cerevisiae MEP2-GFP strain, 3 h, at 10 µM, stronger effect = higher value
Results filed as inconclusive are left out.
Write the answer as a number in %, unit excluded.

GET /values?readout=GFP response vs DMSO&item= c1ccc2c(c1)[nH]c1cnccc12 97.2

Look up GFP response vs DMSO: CC(C)[C@@]1(NC(=O)[C@@H]2C[C@@H]3c4cccc5[nH]cc(c45)C[C@H]3N(C)C2)O[C@@]2(O)[C@@H]3CCCN3C(=O)[C@H](Cc3ccccc3)N2C1=O 132

Sample C[C@]12CCC(=O)C=C1CC[C@@H]1[C@@H]2CC[C@]2(C)C(=O)CC[C@@H]12 — what was its GFP response vs DMSO? 95.1

Look up GFP response vs DMSO for this compound: Cc1ccc2c(c1)C1CN(C)CCC1N2C(=O)Nc1cccc(Cl)c1 (stereo not given) 102

Would you mind telling me what GFP response vs DMSO value was observed for CN1C2CCC1CC(OC(=O)CCN1CCCC1)C2 (stereo not given) ? 105

Query (compound): CC12CN3CC(C)(CN(C1)C31CCOCC1)C2=O ; field requested: GFP response vs DMSO 145

Please report the recorded GFP response vs DMSO for NCC1(c2ccc3c(c2)OCCO3)CCCC1 . 101

Which GFP response vs DMSO reading was recorded for the compound COc1ccc2c(c1)CC1(CN2C)C(=O)NC(=O)N(CCc2ccccc2)C1=O (stereo not given) ? 98.3

Consider the compound shown here: O=Cc1cn(Cc2ccc(F)cc2)c2ccccc12 What is its recorded GFP response vs DMSO? 113

So what's the measured GFP response vs DMSO for this one? CN1CC[C@@]23CCCC[C@@H]2[C@@H]1Cc1ccc(O)cc13 110

----------
For each of the molecules below, state its inhibition.
Target or test system: Lethal factor (Bacillus anthracis) (UniProt P15917)
Sequence (P15917 whole entry, looked up): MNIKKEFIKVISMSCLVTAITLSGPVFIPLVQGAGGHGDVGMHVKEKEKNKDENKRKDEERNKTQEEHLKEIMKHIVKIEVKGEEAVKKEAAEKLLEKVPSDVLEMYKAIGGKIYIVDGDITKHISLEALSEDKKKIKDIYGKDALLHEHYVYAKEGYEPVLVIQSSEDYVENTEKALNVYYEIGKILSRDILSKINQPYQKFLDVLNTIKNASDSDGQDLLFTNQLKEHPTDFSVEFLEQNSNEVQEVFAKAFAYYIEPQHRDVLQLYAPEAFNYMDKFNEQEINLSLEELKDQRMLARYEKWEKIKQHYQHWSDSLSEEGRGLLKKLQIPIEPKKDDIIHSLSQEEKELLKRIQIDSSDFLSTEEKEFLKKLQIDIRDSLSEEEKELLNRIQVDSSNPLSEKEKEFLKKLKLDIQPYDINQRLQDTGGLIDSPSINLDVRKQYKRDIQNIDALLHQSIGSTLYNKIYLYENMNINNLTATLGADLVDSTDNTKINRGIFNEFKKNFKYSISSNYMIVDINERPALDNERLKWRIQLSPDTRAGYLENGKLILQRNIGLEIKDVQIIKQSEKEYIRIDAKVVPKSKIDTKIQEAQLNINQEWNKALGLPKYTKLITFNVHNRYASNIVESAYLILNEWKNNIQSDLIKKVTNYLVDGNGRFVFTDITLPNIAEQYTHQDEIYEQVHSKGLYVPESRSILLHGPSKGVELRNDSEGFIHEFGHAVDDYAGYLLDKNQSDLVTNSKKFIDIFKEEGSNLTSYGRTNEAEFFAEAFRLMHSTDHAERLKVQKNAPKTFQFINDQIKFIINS
Experimental protocol: Lethal factor protease inhibitors, Bacillus anthracis, multiplex microsphere cleavage assay, validation set (AID 588461)
Test conditions: flow cytometry, at 10 µM, stronger effect = higher value
Kindly answer with a numeric value in %, unit omitted.

Give its inhibition value. Item: O=C(CCCn1c(=O)oc2ccccc21)N1CCN(c2ccc(F)cc2)CC1 -4.7

Look at this molecule and give its reported inhibition. COc1cc(C(=O)N/C(=C\c2cn(C)c3ccccc23)C(=O)NCCCO)cc(OC)c1OC -2.5

Param item = O=C(NC(Nc1ccccn1)C(Cl)(Cl)Cl)c1ccccc1 (configuration not stated) ; retrieve measured inhibition. 0.6

Returns the measured inhibition for the input molecule. Input: CN1CCN(C2=Nc3cc(Cl)ccc3Nc3ccccc32)CC1 -6.6

If you can, please state the reported inhibition value of CCOc1ccc(NC(=O)N[C@@H](CCSC)C(=O)OC)cc1 . -4.6

Name the recorded inhibition for COc1ccc(-n2cc(CNCc3cccnc3)c(-c3cccc(F)c3)n2)cc1 . -8.2

Entry CC1(C)C(=O)OC(C(=O)c2ccc(Cl)cc2)C(C)(C)C1=O (configuration not stated) has what inhibition? -3.1

Return reported inhibition; argument: CN(C)C(=O)C12CCC(C)(c3nc4ccccc4nc31)C2(C)C (configuration not stated) 1.8

// query inhibition value for entry O=C1C2CC=C(Cl)CC2C(=O)N1CCc1c[nH]c2ccccc12 (configuration not stated) 0.1

Any idea what its inhibition is? The molecule is NNC(=O)c1ccncc1 5.3

# inhibition lookup, item Nc1ccc2[nH]ncc2c1 2.9

Which inhibition reading was recorded for the molecule Cc1cc(=O)oc(C)c1C(=O)NCCC(C)C ? 4

Data provenance is PubChem BioAssay.
